# test-target: Patatin-like phospholipase domain-containing protein 2 (Mus musculus)
# Sequence (Q8BJ56 whole entry, the tested form may be a part): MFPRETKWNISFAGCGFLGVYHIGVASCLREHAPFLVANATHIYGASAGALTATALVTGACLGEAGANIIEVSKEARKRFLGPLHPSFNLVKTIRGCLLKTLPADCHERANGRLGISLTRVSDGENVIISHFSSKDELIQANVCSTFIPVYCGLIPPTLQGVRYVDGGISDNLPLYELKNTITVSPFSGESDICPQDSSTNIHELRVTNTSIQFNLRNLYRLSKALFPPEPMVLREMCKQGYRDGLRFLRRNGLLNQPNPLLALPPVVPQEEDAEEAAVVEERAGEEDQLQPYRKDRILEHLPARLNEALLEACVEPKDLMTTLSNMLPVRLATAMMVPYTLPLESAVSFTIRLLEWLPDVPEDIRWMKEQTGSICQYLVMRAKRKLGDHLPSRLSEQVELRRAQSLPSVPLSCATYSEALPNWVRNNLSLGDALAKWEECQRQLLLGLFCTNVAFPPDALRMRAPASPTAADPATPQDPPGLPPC
# assay-text: Inhibition of recombinant murine ATGL expressed in Escherichia coli XL-1 lysates
# Type: subcellular
measured-parameter: IC50

compound | IC50
CCOC(=O)c1cccc(-c2ccc(Br)cc2)c1 | > 200 µM
CCOC(=O)c1cccc(-c2ccc(C(C)N3CCN(C)CC3)cc2)c1 (centres undefined) | 200 µM
CCOC(=O)c1cccc(-c2ccc(C(=O)CN(C)C)cc2)c1 | 200 µM
CCOC(=O)c1cn(-c2ccc(OCC)cc2)nn1 | > 200 µM

IC50 measured on `CCOC(=O)c1cccc(-c2ccc(CN3CCN(S(C)(=O)=O)CC3)cc2)c1` = 100 µM

IC50 measured on `CCOC(=O)c1cccc(-c2ccc(CN3CCN(C)CC3)cc2)c1` = > 200 µM

----------
# test-target: Patatin-like phospholipase domain-containing protein 2 (Mus musculus)
# assay-text: Inhibition of murine ATGL expressed in COS-7 cells
# Type: cell-based
Reported IC50 values follow for various compounds
API: value field is a number in µM; no unit string.

Worked examples, 2 compounds total:
compound | quantity-unit | IC50
CCOC(=O)c1cccc(-c2ccc(C(C)N3CCN(C)CC3)cc2)c1 (stereo not given) | µM | 90
CCOc1ccc(-c2cccc(N)c2)cc1 | µM | 100

IC50 measured on `CCOC(=O)c1cccc(-c2ccc(N(C)C)cc2)c1` = 40

IC50 measured on `CCOc1ccc(-c2cccc(C(=O)Oc3ccc([N+](=O)[O-])cc3)c2)cc1` = 150

IC50 measured on `CCOC(=O)c1cccc(-c2ccsc2)c1` = 75

IC50 measured on `CCOc1ccc(-c2cccc(C(=O)N3CCCC3)c2)cc1` = 160

IC50 measured on `CCOC(=O)c1cccc(-c2ccc(O)cc2)c1` = 100

IC50 measured on `CCOc1ccc(-c2cccc(NC(=O)N(C)C)c2)cc1` = 70

IC50 measured on `CCOc1ccc(-c2cccc(S(=O)(=O)NC)c2)cc1` = 200

IC50 measured on `CN(C)c1ccc(-c2cccc(N)c2)cc1` = 100

IC50 measured on `CC(C)COC(=O)Nc1cccc(-c2ccc(N(C)C)cc2)c1` = 22

IC50 measured on `CCOC(=O)c1cccc(-c2cccs2)c1` = 90

IC50 measured on `CCOC(=O)c1cccc(-c2ccc(CN(C)C)o2)c1` = 190

IC50 measured on `CN(C)C(=O)N(C)c1cccc(-c2ccc(N(C)C)cc2)c1` = 70

IC50 measured on `CCOC(=O)c1cc(-c2ccc(OCC)cc2)ccn1` = 105

IC50 measured on `CCOC(=O)c1ccc(-c2ccc(OCC)cc2)o1` = 50

IC50 measured on `CCOC(=O)c1cccc(-c2ccc(C)cc2)c1` = 140

IC50 measured on `CCOC(=O)c1cccc(-c2ccc3[nH]ccc3c2)c1` = 60

IC50 measured on `CCOC(=O)c1cccc(-c2ccc([N+](=O)[O-])cc2)c1` = 95

IC50 measured on `CCOC(=O)c1cccc(-c2ccc3c(ccn3C)c2)c1` = 75

IC50 measured on `CCOc1ccc(-c2cccc(C)c2)cc1` = 70

IC50 measured on `CCOC(=O)c1cccc(-c2ccc(OCC)cc2)c1` = 50

IC50 measured on `CCOC(=O)c1cncc(-c2ccc(OCC)cc2)c1` = 130

IC50 measured on `CC(C)OC(=O)Nc1cccc(-c2ccc(N(C)C)cc2)c1` = 82
